Attribute: TGI
- System: SF-268 CNS
- TEST DETAILS: NCI tumour cell line growth inhibition, 48 h

[
  {
    "MOLECULE": "COc1cc(/C=C2\\CN(C)C/C(=C\\c3cc(CN4CCCCC4)c(O)c(OC)c3)C2=O)cc(CN2CCCCC2)c1O",
    "TGI": "17.4 µM"
  },
  {
    "MOLECULE": "[N-]=[N+]=CC(=O)OCC1SCCCS1",
    "TGI": "> 100 µM"
  },
  {
    "MOLECULE": "O=C(CC(=O)N1N=C(N2c3ccccc3Sc3ccccc32)CC1c1ccccc1)Nc1ccc(Cl)cc1 (stereo not given)",
    "TGI": "> 100 µM"
  },
  {
    "MOLECULE": "Nc1c(C(=O)Nc2ccccc2)[n+]([O-])c2ccccc2[n+]1[O-]",
    "TGI": "> 100 µM"
  },
  {
    "MOLECULE": "Cc1ccc(-c2cc(C3=CC(=O)C=CC3=O)n(-c3ccc(S(N)(=O)=O)cc3)n2)cc1",
    "TGI": "> 100 µM"
  }
]
